# studySystem: Nuclear receptor subfamily 1 group I member 2 (Rattus norvegicus) (UniProt Q9R1A7)
# Sequence (Q9R1A7 whole entry, looked up): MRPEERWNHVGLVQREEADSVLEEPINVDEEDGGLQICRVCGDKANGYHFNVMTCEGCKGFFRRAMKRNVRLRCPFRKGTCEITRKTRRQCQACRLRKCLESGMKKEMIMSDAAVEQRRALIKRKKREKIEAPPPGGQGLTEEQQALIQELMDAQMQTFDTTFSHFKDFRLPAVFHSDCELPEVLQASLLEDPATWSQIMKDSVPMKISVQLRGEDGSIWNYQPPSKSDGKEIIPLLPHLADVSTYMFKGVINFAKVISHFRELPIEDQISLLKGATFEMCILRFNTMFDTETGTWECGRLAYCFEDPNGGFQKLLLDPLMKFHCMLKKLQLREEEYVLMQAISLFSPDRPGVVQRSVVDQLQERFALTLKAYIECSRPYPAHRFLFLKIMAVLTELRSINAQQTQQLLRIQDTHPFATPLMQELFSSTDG
# testMethodNotes: Rat pregnane X receptor (rPXR) activation by small molecules, qHTS assay (AID 1346983); also: % is scaled to controls: 0 for no effect and ±100 for the full control effect; nearly all actives have a fitted effect of over 20% in size
# experimentalContext: rPXR luciferase reporter cells, One-Glo luminescence, 24 h; hits give high values
Results filed as inconclusive are left out.
Measured max activation accompanies every entry in the list below.
# number only, unit % dropped from output

compound	reportedEndpoint	reported
NNc1ccccc1	max activation	-1.33
COP(=S)(OC)SCN1C(=O)c2ccccc2C1=O	max activation	-1.79

Measured max activation (Nuclear receptor subfamily 1 group I member 2 (Rattus norvegicus) (UniProt Q9R1A7)), entry CNC(=O)Oc1cccc2ccccc12 : -0.0164

Measured max activation (Nuclear receptor subfamily 1 group I member 2 (Rattus norvegicus) (UniProt Q9R1A7)), entry Nc1ccc([As](=O)(O)O)cc1 : -1.25

Measured max activation (Nuclear receptor subfamily 1 group I member 2 (Rattus norvegicus) (UniProt Q9R1A7)), entry CNCC(O)c1ccc(O)cc1 (stereo unspecified) : -2.53

Measured max activation (Nuclear receptor subfamily 1 group I member 2 (Rattus norvegicus) (UniProt Q9R1A7)), entry Cc1cc(O)ccc1Cl : -2.1
